Field: Short-term stability at room temperature for 6 h, RE. Provide a value for each of the molecules that follow.
experiment: Stability tests of analytes in rat plasma QC samples; type: in vitro ADME; settings: rat plasma, nominal conc. 400 nM
Give bare numbers, in %.

Field: example entries. Status: answers known.
- molecule: "CC(C)(O)[C@@H]1CC[C@](C)([C@H]2[C@@H](O)C[C@@]3(C)[C@@H]4C[C@H](O[C@@H]5O[C@H](CO)[C@@H](O)[C@H](O)[C@H]5O)[C@H]5C(C)(C)[C@@H](O[C@@H]6OC[C@@H](O)[C@H](O)[C@H]6O)CC[C@@]56C[C@@]46CC[C@]23C)O1 [Compound B2, Astragaloside IV]"
  measuredResult: -13.36
- molecule: "CC(C)=CCC[C@](C)(O)[C@H]1CC[C@]2(C)[C@@H]1[C@H](O)C[C@@H]1[C@@]3(C)CC[C@H](O)C(C)(C)[C@@H]3[C@@H](O[C@@H]3O[C@H](CO)[C@@H](O)[C@H](O)[C@H]3O[C@@H]3O[C@H](CO)[C@@H](O)[C@H](O)[C@H]3O)C[C@]12C [Compound C7, Ginsenoside Rf]"
  measuredResult: -11.69

Now consider the entry below.
*Q* What does the data say about its Short-term stability at room temperature for 6 h, RE? Entry: CC(C)=CCC[C@](C)(O[C@@H]1O[C@H](CO[C@@H]2OC[C@H](O)[C@H](O)[C@H]2O)[C@@H](O)[C@H](O)[C@H]1O)[C@H]1CC[C@]2(C)[C@@H]1[C@H](O)C[C@@H]1[C@@]3(C)CC[C@H](O[C@@H]4O[C@H](CO)[C@@H](O)[C@H](O)[C@H]4O[C@@H]4O[C@H](CO)[C@@H](O)[C@H](O)[C@H]4O)C(C)(C)[C@@H]3CC[C@]12C [Compound D4, Ginsenoside Rb2]
*A* -12.50

----------
assay: Stability tests of analytes in rat plasma QC samples; format: in vitro ADME; settings: rat plasma, nominal conc. 20 nM
So I've got a bunch of molecules here, and I need their Short-term stability at room temperature for 6 h, Mean±SD values.
One number for each entry, in nM.

- molecule: "CC(C)=CCC[C@](C)(O[C@@H]1O[C@H](CO[C@@H]2OC[C@H](O)[C@H](O)[C@H]2O)[C@@H](O)[C@H](O)[C@H]1O)[C@H]1CC[C@]2(C)[C@@H]1[C@H](O)C[C@@H]1[C@@]3(C)CC[C@H](O[C@@H]4O[C@H](CO)[C@@H](O)[C@H](O)[C@H]4O[C@@H]4O[C@H](CO)[C@@H](O)[C@H](O)[C@H]4O)C(C)(C)[C@@H]3CC[C@]12C [Compound D4, Ginsenoside Rb2]"
  measurementUnits: "nM"
  measuredResult: 20.28

Parameter requested: Short-term stability at room temperature for 6 h, Mean±SD. Apply to each item below.
1. CC(C)=CCC[C@](C)(O)[C@H]1CC[C@]2(C)[C@@H]1[C@H](O)C[C@@H]1[C@@]3(C)CC[C@H](O)C(C)(C)[C@@H]3[C@@H](O[C@@H]3O[C@H](CO)[C@@H](O)[C@H](O)[C@H]3O[C@@H]3O[C@H](CO)[C@@H](O)[C@H](O)[C@H]3O)C[C@]12C [Compound C7, Ginsenoside Rf]
2. CC(C)=CCC[C@](C)(O)[C@H]1CC[C@]2(C)[C@@H]1[C@H](O)C[C@@H]1[C@@]3(C)CC[C@H](O)C(C)(C)[C@@H]3[C@@H](O[C@@H]3O[C@H](CO)[C@@H](O)[C@H](O)[C@H]3O[C@@H]3O[C@@H](C)[C@H](O)[C@@H](O)[C@H]3O)C[C@]12C [Compound C5, Ginsenoside Rg2]
3. O=C1C=CC[C@@H]2[C@H]3CCC[N+]4([O-])CCC[C@@H](CN12)[C@@H]34 (stereo partly drawn)
4. CC(C)=CCC[C@](C)(O[C@@H]1O[C@H](CO[C@@H]2O[C@@H](CO)[C@H](O)[C@H]2O)[C@@H](O)[C@H](O)[C@H]1O)[C@H]1CC[C@]2(C)[C@@H]1[C@H](O)C[C@@H]1[C@@]3(C)CC[C@H](O[C@@H]4O[C@H](CO)[C@@H](O)[C@H](O)[C@H]4O[C@@H]4O[C@H](CO)[C@@H](O)[C@H](O)[C@H]4O)C(C)(C)[C@@H]3CC[C@]12C [Compound D3, Ginsenoside Rc]
5. CC(C)(O)[C@@H]1CC[C@](C)([C@H]2[C@@H](O)C[C@@]3(C)[C@@H]4C[C@H](O)[C@H]5C(C)(C)[C@@H](O[C@@H]6OC[C@@H](O)[C@H](O)[C@H]6O[C@@H]6O[C@H](CO)[C@@H](O)[C@H](O)[C@H]6O)CC[C@@]56C[C@@]46CC[C@]23C)O1 [Compound B3, Astragaloside III]

*A*
20.44
19.68
20.94
21.00
19.47
